Provenance of the data: PubChem BioAssay (NCI)

# maps each entry to its growth
# Test system: ACHN renal
# EXPERIMENT: NCI-60 one-dose screen, 48 h (100 = growth as untreated, 0 = no growth, -100 = all killed)
# STUDY_CONDITIONS: 10 µM
# Experimental: Growth inhibition of the ACHN human tumor cell line is measured as a screen for anti-cancer activity. Cells are grown in 96 well plates and exposed to the test compound for 48 hours. Compounds are tested at a single concentration, which is 10^-5 M for most compounds. The reported endpoint is percent growth (GI% or GIPRCNT), where numbers from 0 - 100% represent growth inhibition, and numbers from -100% - 0 represent cell death. For example, a value of 40 represents 60% growth inhibition. […]
This is part of a sample that, as a whole, favours compounds with a hit. Of some 83,000 tested, about 20% had one in any assay. Active and inactive are the calls of the source. Rule for the calls: active = growth percent below 10; inactive = the rest.

Would you please look over these solved cases?
>>> readout_value("O=C(NCCc1nccs1)c1cnc2c(S)cccc2c1")
"29% (inactive)"
>>> readout_value("O=C(Nc1ccc(OCc2nnc(-c3ccccc3)o2)c(F)c1)Nc1ccc(Cl)c(Cl)c1")
"39% (inactive)"
>>> readout_value("Cc1ccc([P+](Cc2ccccc2)(c2ccccc2)c2ccccc2)cc1")
"60.6% (inactive)"
>>> readout_value("CC1(C)CNC(=O)N1")
"110% (inactive)"
>>> readout_value("N#CN1CC[C@H](C(=O)Nc2ncc(-c3ccccc3)s2)C1")
"4.65% (active)"
>>> readout_value("O=C(Nc1cccc(-c2nc3ccccc3[nH]2)c1)c1cccc(NC(=O)c2ccco2)c1")
"86% (inactive)"

Query: Item "CNC(=O)c1cc(Oc2ccc(NC(=O)Nc3ccc(Cl)c(OC4CCCCC4)c3)c(F)c2)ccn1" has what recorded growth?
Reply: 29.8% (inactive)

Query: Record: CCN(CC)CC(O)CNc1ccnc2cc(Cl)c(Cl)cc12 (centres undefined)
Reply: 98.4% (inactive)

Query: Record: O=C(c1ccccc1)C(Sc1ccccc1)c1ccccc1 (centres undefined)
Reply: 34.5% (inactive)

====

# System: OVCAR-4 ovarian
# EXPERIMENT: NCI-60 one-dose screen, 48 h
# STUDY_CONDITIONS: 10 µM
Compounds without any hit were thinned out: in the full panel of roughly 83,000, 20% have a hit. Active and inactive are the calls of the source. Rule for the calls: active = growth percent below 10; inactive = the rest.
Pick from active, inactive when you respond.

>>> label_value("O=C(c1ccc(Cl)cc1)c1no[n+]([O-])c1C(=O)c1ccc(Cl)cc1")
"inactive"

Next up:
Query: Per the assay record, what outcome was assigned to "Cc1ccc(-n2nnc3c(sc4ccccc43)c2=O)cc1" ?
Reply: active

====

# System: EKVX NSCLC
# EXPERIMENT: NCI-60 one-dose screen, 48 h
# STUDY_CONDITIONS: 10 µM
The panel holds about 83,000 compounds, 20% with a hit somewhere; the sample as a whole holds those more often. The source made the active and inactive calls. The calls were made as follows: active = growth percent below 10; inactive = the rest.
Pick from Yes for active, No for inactive when you respond.

Worked set:
>>> label_value("C/C(=N\\NC(=O)c1sc(=S)n(C)c1N)c1cc2ccccc2o1")
"No"
>>> label_value("CCOC(=O)Nc1ccc2c(c1)C(=O)N(CC)c1ccccc1O2")
"No"
>>> label_value("Clc1cc(Cl)c(Cl)c(-c2nc(-c3cccnc3)cs2)c1")
"No"
>>> label_value("COc1ccc(-c2csc(-c3cc(Cl)cc(Cl)c3Cl)n2)cc1")
"No"
>>> label_value("Cc1cc(C)c2nc(C)c(C)[n+]([O-])c2c1")
"No"

Query: Per the assay record, what outcome was assigned to "CCCCn1c(=O)[nH]c(N)c(C(c2ccc(Cl)cc2)c2c(N)[nH]c(=O)n(CCCC)c2=O)c1=O" ?
Reply: No

Query: Record: "Cc1ccc(C)c(S(=O)(=O)NC2c3ccccc3Oc3ccccc32)c1"
Reply: No

Query: Record: "C[C@@H]1C(=O)N(C[C@H](Cc2ccccc2)NC(=O)OCc2ccccc2)[C@]1(Cc1ccccc1)C(=O)OCc1ccccc1"
Reply: No

Query: Record: "CCOC(=O)C(=O)Cc1cccnn1"
Reply: No

Query: Record: "Cc1ccc(Cl)cc1Nc1nc(C(F)(F)F)ccc1C(=O)N/N=C/c1c(Cl)cccc1Cl"
Reply: Yes
